Overview of recorded pEC50 for various binders
# systemUnderTest: T1, synthetic amyloid-like fibrils of recombinant amyloidogenic λ6 variable domain protein (rVλ6Wil)
# T1 construct: domain: λ6 variable domain; Fibrillar aggregate of many copies; also called rVλ6Wil fibrils; rVλ6Wil synthetic fibrils
# methodNotes: EuLISA, substrate coated on plate
Entry type: numeric. Quantity: pEC50, the -log10 of concentration in molar units.

VH9/VL4-p5 (humanized VH9/VL4 with peptide p5 fused to the N-terminal of the light chain) (antibody, V domains shown) VH: QVQLQESGPGLVKPSETLSLTCTVSGFSLSSYGVSWIRQPPGKGLEWLGVIWGDGSTNYHPNLMSRVTISVDTSKSQVLFKLSSVTAADTAVYYCATLDYWGQGTSVTVSS VL: DVVMTQSPLSLPVTLGQPASISCRSSQSLVHRNGNTYLHWFQQRPGQSPRLLIYKVSNRFSGVPDRFSGSGSGTDFTLKISRVEAEDVGVYFCFQTTYVPNTFGGGTKLEIK yielded pEC50 of 8.39
